Protocol notes: AUC (0 to infinity) in mouse at 25 mg/kg, po
Format: ADME, organism-based
Experimental setup: in vivo

{"Compound": "O=C1CCC(Nc2cccc(N3CCN(CC4CCN(CC(=O)N5CCC(NC(=O)c6n[nH]cc6NC(=O)c6c(Cl)cccc6Cl)CC5)CC4)CC3)c2)C(=O)N1 (stereo unspecified)", "AUC(0-inf)": "971 ng·h/mL"}

----------
Protocol notes: Half-life in mouse at 5 mg/kg, iv
Type: ADME, organism-based
Experimental setup: in vivo

{"Compound": "O=C1CCC(Nc2cccc(N3CCN(CC4CCN(CC(=O)N5CCC(NC(=O)c6n[nH]cc6NC(=O)c6c(Cl)cccc6Cl)CC5)CC4)CC3)c2)C(=O)N1 (stereo unspecified)", "half-life, h": 8.2}
